Tested Target: D2L DAR (Rattus norvegicus, UniProt P61169)
Sequence (P61169 whole entry): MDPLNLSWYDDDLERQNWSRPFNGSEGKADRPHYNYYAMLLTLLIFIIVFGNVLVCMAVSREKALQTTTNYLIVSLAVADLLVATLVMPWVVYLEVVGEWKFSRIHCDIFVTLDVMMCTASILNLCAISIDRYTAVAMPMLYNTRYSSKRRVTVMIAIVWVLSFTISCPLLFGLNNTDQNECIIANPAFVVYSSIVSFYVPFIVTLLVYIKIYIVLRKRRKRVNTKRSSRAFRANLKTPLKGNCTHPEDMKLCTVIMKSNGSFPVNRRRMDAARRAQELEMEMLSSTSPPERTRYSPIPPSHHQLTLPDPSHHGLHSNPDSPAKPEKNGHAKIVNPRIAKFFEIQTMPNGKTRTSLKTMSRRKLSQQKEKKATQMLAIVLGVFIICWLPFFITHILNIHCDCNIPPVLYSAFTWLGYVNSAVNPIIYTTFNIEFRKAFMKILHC
Assay type: binding
Measurement Context: read-out: KiL; + GTP 100 μM, single site
Reported Endpoint: pKi
One number for each entry, as −log10 of the molar value.

Q: Give recorded pKi. CCCN1CCc2cc(OC)cc3c2[C@H]1Cc1ccc(O)c(O)c1-3 [MNPA, (R)-2-^11CH3O-N-n-propylnorapomorphine]
A: 7.86

====

Tested Target: D2L DAR (Rattus norvegicus, UniProt P61169)
Measurement Context: inhibition of forskolin-stimulated cAMP accumulation, no antagonist
Reported Endpoint: pIC50
One number for each entry, as −log10 of the molar value.

Q: Specify the recorded pIC50 for CCCN1CCc2cc(OC)cc3c2[C@H]1Cc1ccc(O)c(O)c1-3 [MNPA, (R)-2-^11CH3O-N-n-propylnorapomorphine] , system: D2L DAR (Rattus norvegicus, UniProt P61169).
A: 9.48

====

Tested Target: D2L DAR (Rattus norvegicus)
Type: binding
Measurement Context: read-out: KiL; low affinity state, absence of GTP
Reported Endpoint: Ki (nM)
Answers are plain numbers, in nM.

Q: Give recorded Ki. CCCN1CCc2cc(OC)cc3c2[C@H]1Cc1ccc(O)c(O)c1-3 [MNPA, (R)-2-^11CH3O-N-n-propylnorapomorphine]
A: 16.9

====

Tested Target: D3 DAR (Rattus norvegicus, UniProt P19020)
Sequence (P19020 whole entry): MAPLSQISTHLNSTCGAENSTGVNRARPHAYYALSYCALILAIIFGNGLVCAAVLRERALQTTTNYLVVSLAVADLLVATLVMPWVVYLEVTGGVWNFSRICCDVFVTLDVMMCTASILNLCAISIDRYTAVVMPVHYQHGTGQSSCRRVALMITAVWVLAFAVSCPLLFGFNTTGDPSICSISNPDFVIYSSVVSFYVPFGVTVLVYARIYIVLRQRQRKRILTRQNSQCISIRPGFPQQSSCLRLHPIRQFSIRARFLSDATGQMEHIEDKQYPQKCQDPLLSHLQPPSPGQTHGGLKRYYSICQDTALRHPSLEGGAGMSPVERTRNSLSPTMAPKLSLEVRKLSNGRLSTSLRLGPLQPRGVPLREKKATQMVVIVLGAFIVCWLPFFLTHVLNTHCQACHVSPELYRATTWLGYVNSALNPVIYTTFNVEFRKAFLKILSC
Measurement Context: 3 μM forskolin, D3 DAR + AC-V, no antagonist
Reported Endpoint: IC50 (nM)
One number for each entry, in nM.

Q: Give recorded IC50. CCCN1CCc2cc(OC)cc3c2[C@H]1Cc1ccc(O)c(O)c1-3 [MNPA, (R)-2-^11CH3O-N-n-propylnorapomorphine]
A: 3.43

====

Tested Target: D2L DAR (Rattus norvegicus)
Type: binding
Measurement Context: read-out: KiH; high affinity state, absence of GTP, [3H]methylspiperone ~0.2 nM
Reported Endpoint: pKi
Answers are plain numbers, as −log10 of the molar value.

Q: Give recorded pKi. CCCN1CCc2cc(OC)cc3c2[C@H]1Cc1ccc(O)c(O)c1-3 [MNPA, (R)-2-^11CH3O-N-n-propylnorapomorphine]
A: 10.05

====

Tested Target: D3 DAR (Rattus norvegicus)
Format: binding
Measurement Context: read-out: KiL; + GTP 100 μM (dopamine: one-site fit)
Reported Endpoint: pKi
Give bare numbers, as −log10 of the molar value.

Q: Give recorded pKi. CCCN1CCc2cc(OC)cc3c2[C@H]1Cc1ccc(O)c(O)c1-3 [MNPA, (R)-2-^11CH3O-N-n-propylnorapomorphine]
A: 8.96

====

Tested Target: D3 DAR (Rattus norvegicus, UniProt P19020)
Format: binding
Measurement Context: read-out: KiL; absence of GTP (dopamine: one-site fit)
Reported Endpoint: Ki (nM)
Answers are plain numbers, in nM.

Q: Give recorded Ki. CCCN1CCc2cc(OC)cc3c2[C@H]1Cc1ccc(O)c(O)c1-3 [MNPA, (R)-2-^11CH3O-N-n-propylnorapomorphine]
A: 1.02
